Cited source: PubChem BioAssay (NCI)

# TGI values compiled below
# Test system: MCF7 breast
# Assay Info: NCI tumour cell line growth inhibition, 48 h

Compound	Result
O=c1[nH]c2ccccc2n2cc3ccccc3c12	> 100 µM
COc1ccc(-c2coc3cc(O)cc(O)c3c2=O)cc1	> 10 µM
O=C1C=CC(=O)N1c1ccc(I)cc1	45.3 µM
CCCCCCCCCCCCCCCC(=O)Nc1ccn(C2CCC(COP(=O)(O)OCC3OC(n4cc(F)c(=O)[nH]c4=O)CC3OC(C)=O)O2)c(=O)n1 (stereo not given)	44.1 µM
O=C1CCCC2=C1CC1=C(CCCC1=O)N2c1ccc([N+](=O)[O-])cc1	> 100 µM

Bench note, MCF7 breast: CCOC(=O)[C@@H](C)C[C@H](Cc1ccccc1)NC(=O)c1csc([C@@H](C[C@H](C(C)C)N(C)C(=O)[C@@H](NC(=O)[C@H]2C[C@H](O)CCN2C)C(C)C)OC(C)=O)n1 , TGI reads > 16.7 µM
